For each record, write down the corresponding Tm shift relative to glycine control.
- System: Glutamate receptor ionotropic, NMDA 3A (GRIN3A) ligand-binding domain
- EXPERIMENT_DESCRIPTION: binders of NR3A ligand-binding domain, primary screen, biophysical, differential scanning fluorimetry, uHTS (AID 1259313)
- STATED_CONDITIONS: NR3A LBD differential scanning fluorimetry, at 25 µM, hits give high values, 0% = protein alone, 100% = glycine-bound protein
Among all 340,000 compounds or so, about 8,500 (2.5%) were called active. The sample as a whole holds a higher share of actives than the screen did.
Express it in %; write the number only.

Challenge: Name the recorded Tm shift relative to glycine control of the item CC(C)Oc1ccc(CC(=O)NNC(=S)Nc2ccc(Br)cc2)cc1 in your answer.
Response given: -3.79

Challenge: Name the recorded Tm shift relative to glycine control of the item Cc1ccc(-c2cc(=O)[nH]c(NCc3ccccc3)n2)cc1 in your answer.
Response given: -1.01

Challenge: Name the recorded Tm shift relative to glycine control of the item O=C(COc1ccc(-n2cnnn2)cc1)Nc1ccccc1Cl in your answer.
Response given: -3.66

Challenge: Name the recorded Tm shift relative to glycine control of the item C[C@@H](C(=O)N1CCNCC1)n1cc(CCC(=O)O)nn1 in your answer.
Response given: 1.39

Challenge: Name the recorded Tm shift relative to glycine control of the item COc1ccc(S(=O)(=O)NCC(c2ccco2)N2CCOCC2)cc1 (stereo unspecified) in your answer.
Response given: 0.48

Challenge: Name the recorded Tm shift relative to glycine control of the item O=c1[nH]c2c(c(=O)n1-c1ccccc1)CCO2 in your answer.
Response given: 1.26
